Source: patent US11207296B2

Biological target: full length XPA protein (Homo sapiens);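 further: XPA expressed in Sf9 cells, preincubated with compound on ice before adding DNA, complex resolved on native polyacrylamide gel at 4 °C, PhosphorImager band intensity, binding inhibition versus DMSO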
Sequence (P23025 whole entry): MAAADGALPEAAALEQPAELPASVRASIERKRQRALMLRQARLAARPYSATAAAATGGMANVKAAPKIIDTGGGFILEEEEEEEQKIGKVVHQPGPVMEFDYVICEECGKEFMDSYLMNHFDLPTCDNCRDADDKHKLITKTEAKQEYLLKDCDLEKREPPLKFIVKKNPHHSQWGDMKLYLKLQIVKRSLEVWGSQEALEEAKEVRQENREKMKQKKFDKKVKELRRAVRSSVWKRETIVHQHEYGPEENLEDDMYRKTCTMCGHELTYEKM
Assay: biochemical
Details: IC50 (μM), EMSA, 32P labeled 30 bp duplex DNA containing a single 1,2 dGpG cisplatin adduct, several values in a cell = separate determinations
propertyLabel: IC50 (µM)

> print(dat)
                                   compound  propertylabel  limitoperator  result
1  CC1=NN(c2cccc(C(=O)O)c2)C(=O)C1Cc1ccc(-c2ccc(Cl)c(C(=O)NCC3CC3)c2)o1 (stereo not shown) [NG-01-72R]           IC50              =      42
2  CC1=NN(c2ccc(C(=O)O)cc2)C(=O)/C1=C\c1ccc(-c2ccc(Cl)c(C(=O)O)c2)s1           IC50              =      12
3  CC1=NN(c2cccc(C(=O)O)c2)C(=O)/C1=C\c1ccc(-c2ccc(Cl)c(C(=O)NC3CC3)c2)o1 [Compound 34f]           IC50              =      32
4  COc1cccc(NC(=O)c2cc(-c3ccc(CC4C(=O)N(c5cccc(C(=O)O)c5)N=C4C)s3)ccc2Cl)c1 (stereo not shown)           IC50              =    12.5
5  C=CCCCc1cccc(-c2ccc(/C=C3/C=NN(c4cccc(C(=O)O)c4)C3=O)o2)c1           IC50              =       3
6  CC1=NN(c2cccc(C(=O)O)c2)C(=O)C1Cc1ccc(-c2ccc(Cl)c(C(=O)NCc3ccc(F)cc3)c2)o1 (stereo not shown)           IC50              >      25
7  CC1=NN(c2cccc(C(=O)O)c2)C(=O)/C1=C\c1ccc(-c2ccc(Cl)c(C(=O)NC3CCOCC3)c2)o1 [Compound 34g]           IC50              =      40
